// provenance: PubChem BioAssay AID624296

Assay: A quantitative high throughput screen for small molecules that induce DNA re-replication in MCF 10a normal breast cells. Further: nearly all actives have a fitted effect of over 50% in size.
Conditions: MCF 10A DNA re-replication, Hoechst nuclear intensity, 48 h; series mostly up to 46.1 µM
About 9,900 (2.8%) of roughly 350,000 compounds were called active. Another 15% or so got no clear call; they are omitted. The call rests on the fitted dose curve; in most records, active means well fitted activation curve with a large enough effect; inconclusive means small, poorly fitted or top-dose-only effect; inactive means no such curve, though single readings can be large or run the other way. For the sample, actives were picked, then their nearest neighbours and some compounds at random.
Output constraint: value belongs to YES = active, NO = inactive

Data request: // return assay outcome for COc1ccc2nc(N3C(=O)C(O)=C(C(=O)c4ccco4)C3c3ccco3)sc2c1 (stereo unspecified)
Data returned: NO

Data request: What is the recorded call for this compound in the test? COc1ccc(Nc2nnc(C)c3ccccc23)cc1
Data returned: NO

Data request: I would be grateful if you could indicate the recorded call for CCOC(=O)C1CCN(C(=O)CN2C(=O)NC(C)(c3ccc4cc(OC)ccc4c3)C2=O)CC1 (stereo unspecified) .
Data returned: NO

Data request: Record request — test call for O=C(COC(=O)c1ccccc1)c1ccc2c(c1)OCCO2
Data returned: NO

Data request: Assay result, entry O=C(C/C(=N\NC(=O)c1ccccc1Br)C(F)(F)F)c1cccs1 — outcome?
Data returned: YES

Data request: For Nc1ccc2[nH]c(=S)sc2c1 , what call appears in the results of this test?
Data returned: NO

Data request: // return assay outcome for N#CCCN(C(=O)COC(=O)c1ccc2c(c1)OCCO2)c1ccccc1
Data returned: NO

Data request: Tell me the assay call for Cn1c(C(=O)NCCCN2CCN(c3cccc(Cl)c3)CC2)cc2c(=O)n(C)c3ccccc3c21 please.
Data returned: YES

Data request: For Nc1ccc2c(c1)C(O)c1ccc(Cl)cc1-2 (stereo unspecified) , which call appears in the assay record?
Data returned: NO

Data request: Dear colleague, could you share the recorded outcome for Cc1ccc2c(CN3CCN(S(=O)(=O)c4ccccc4C(F)(F)F)CC3)cc(=O)oc2c1 when you have a moment?
Data returned: NO

Data request: Name the outcome recorded for COc1cc2c(cc1OC)CN(C(C)C(=O)Nc1cccc(S(=O)(=O)N3CCOCC3)c1)CC2 (stereo unspecified) in the assay.
Data returned: NO

Data request: Outcome? CCN(C[C@H]1N[C@@](CC)(C(=O)OC)[C@H]2C(=O)N(Cc3ccccc3)C(=O)[C@@H]12)S(=O)(=O)c1ccccc1
Data returned: NO

Data request: What outcome does the record of this test show for Cn1c(C(=O)NCCc2ccsc2)cc2c(=O)n(C)c3ccccc3c21 ?
Data returned: NO

Data request: Could you please tell me the result logged for CCn1c(=O)cc(OCC(=O)NCCCN2CCN(c3cccc(Cl)c3)CC2)c2ccccc21 in this assay?
Data returned: NO

Data request: Answer briefly: the call reported for COc1ccc(N(C(=O)c2snc(C(N)=O)c2N)C(C(=O)NC2CCCC2)c2ccco2)cc1OC (stereo unspecified) in this assay.
Data returned: NO

Data request: Dear all, I need the recorded test outcome for O=[N+]([O-])c1cccc(/C([O-])=C(/C(=S)Nc2ccccc2F)[n+]2ccccc2)c1 , thank you.
Data returned: NO

Data request: // param item: O=C(CNC(=O)c1ccccc1Br)NNC(=O)c1cccs1 ; yields the recorded call
Data returned: NO

Data request: What outcome does the record of this test show for O=C1COc2ccc(C(=O)COC(=O)c3ccccc3Cl)cc2N1 ?
Data returned: NO

Data request: Hey, what did the test say about CCc1ccccc1OCC(=O)Nc1ccc2c(c1)OCCO2 ?
Data returned: NO

Data request: What classification did CCCCN(C(=O)C(CCSC)N1C(=O)c2ccccc2C1=O)c1c(N)n(CCC)c(=O)[nH]c1=O (stereo unspecified) end up with in this test?
Data returned: NO

Data request: Outcome? COC(=O)c1ccc(C)c(NC(=O)Cn2c(C)csc2=O)c1
Data returned: NO
